// provenance: PubChem BioAssay (NCATS)

# tgt: Cellular tumor antigen p53 (Homo sapiens)
# measurement.description: Primary qHTS for small molecule compounds that upregulate eGFP-tagged delta133p53alpha (in N-terminal) cells. (AID 2060322);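 further: cells pre-induced with doxycycline then dosed without doxycycline; series mostly up to about 56 µM; 0% = DMSO vehicle and 100% = reference activator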
# condition.summary: NCI-H358 eGFP-delta133p53alpha fluorescence, 24 h; stronger effect = higher value
# Description: Assay Development and Screening Technology National Center for Advancing Translational Sciences (NCATS), National Institute of Health (NIH), Rockville, Maryland Cellular senescence (CS) is one of the hallmarks of aging and age-related diseases. […] Here we report the development and validation of a cell-based quantitative high throughput screening (qHTS) assay in 1,536-well format. […]
Results filed as inconclusive are left out.
measured.parameter: activation (%)
I only need the number, in %, no unit after it.

Task: Which value of activation has been reported for O=c1[nH]c2cc(Cl)ccc2n1C1CCNCC1 in the records?
Output: 9.6

Task: Queued: C=C[C@H]1CN2CC[C@H]1C[C@@H]2[C@@H](O)c1ccnc2ccccc12
Output: 3.57

Task: Queued: O=[N+]([O-])O[C@H]1CO[C@H]2[C@@H]1OC[C@H]2O[N+](=O)[O-]
Output: 34.5

Task: Queued: CCN[C@@H](C)Cc1ccccc1
Output: -10.7

Task: Queued: CN1CCc2cc3c(cc2[C@H]1[C@@H]1OC(=O)c2c1ccc1c2OCO1)OCO3
Output: -11

Task: Queued: CN(C)C(=O)Oc1cc(OC(=O)N(C)C)cc(C(O)CNC(C)(C)C)c1 (stereo unspecified)
Output: -17.6

Task: Queued: C[N+](C)(C)CCOC(=O)CBr
Output: -13.1

Task: Queued: COC[C@H]1OC(=O)c2coc3c2[C@@]1(C)C1=C(C3=O)[C@@H]2CC[C@H](O)[C@@]2(C)C[C@@H]1OC(C)=O
Output: 13.2

Task: Queued: CC12CCC3C(C1)c1c(cc(O)c(C(=O)c4ccccc4)c1OC3(C)C)O2 (stereo unspecified)
Output: -17.6

Task: Queued: COc1cc(N)c(Cl)cc1C(=O)NC1CN2CCC1CC2 (stereo unspecified)
Output: 10.7

Task: Queued: NC(=O)CN1CC(O)CC1=O (stereo unspecified)
Output: -34.2
